// data source = patent US11407761B2

test system: A549; test: PrestoBlue cell viability, A549; assay type: cell-based, Human; conditions: Homo sapiens, A549, 48 h, lung
pIC50: −log10 of the molar value.
value_type: pIC50

| compound_smiles | value_type | reading_qualifier | observed_result |
| --- | --- | --- | --- |
| COc1cc([C@@H]2C3=C(COC3=O)Cc3cc4c(cc32)OCO4)cc(OC)c1OCC1CCCCC1 | pIC50 | = | 6.16 |
| COc1cc([C@@H]2C3=C(COC3=O)Cc3cc4c(cc32)OCO4)cc(OC)c1OCc1ccc(F)cc1 | pIC50 | = | 6.54 |
| COc1cc([C@@H]2C3=C(COC3=O)Cc3cc4c(cc32)OCO4)cc(OC)c1OC(C)=O | pIC50 | = | 7.19 |
| COc1cc([C@@H]2C3=C(COC3=O)Cc3cc4c(cc32)OCO4)cc(OC)c1OC(=O)c1ccccc1 | pIC50 | = | 6.69 |
| COc1cc([C@@H]2C3=C(COC3=O)Cc3cc4c(cc32)OCO4)cc(OC)c1OCc1ccc(C(F)(F)F)cc1 | pIC50 | ≤ | 4.30 |
| C=CCCOc1c(OC)cc([C@@H]2C3=C(COC3=O)Cc3cc4c(cc32)OCO4)cc1OC | pIC50 | ≤ | 4.30 |
| COc1cc([C@@H]2C3=C(COC3=O)Cc3cc4c(cc32)OCO4)cc(OC)c1OCc1ccc(C)cc1 | pIC50 | ≤ | 4.30 |

###

system: HCT-116; assay: PrestoBlue cell viability, HCT-116; format: cell-based; details: Homo sapiens; colon, HCF116 (HCT-116), 48 h
pIC50: −log10 of the molar value.
Would you mind labelling by pIC50? At or over 6 is condition met, under is condition not met.

| compound | experimental_target | class_assignment |
| --- | --- | --- |
| COc1cc([C@@H]2C3=C(COC3=O)Cc3cc4c(cc32)OCO4)cc(OC)c1OCC1CCCCC1 | HCT-116 | condition not met |
| COc1cc([C@@H]2C3=C(COC3=O)Cc3cc4c(cc32)OCO4)cc(OC)c1OCc1ccc(F)cc1 | HCT-116 | condition not met |
| COc1cc([C@@H]2c3cc4c(cc3[C@@H](O[C@@H]3O[C@@H]5CO[C@@H](C)O[C@H]5[C@H](O)[C@H]3O)[C@H]3COC(=O)[C@H]23)OCO4)cc(OC)c1O [Etoposide, reference compound] | HCT-116 | condition not met |
| COc1cc([C@@H]2C3=C(COC3=O)Cc3cc4c(cc32)OCO4)cc(OC)c1OCc1ccc(C(F)(F)F)cc1 | HCT-116 | condition not met |
| C=CCCOc1c(OC)cc([C@@H]2C3=C(COC3=O)Cc3cc4c(cc32)OCO4)cc1OC | HCT-116 | condition not met |
| COc1cc([C@@H]2C3=C(COC3=O)Cc3cc4c(cc32)OCO4)cc(OC)c1OCc1ccc(C)cc1 | HCT-116 | condition not met |
| COc1cc([C@@H]2C3=C(COC3=O)Cc3cc4c(cc32)OCO4)cc(OC)c1OC(C)=O | HCT-116 | condition met |
| COc1cc([C@@H]2C3=C(COC3=O)Cc3cc4c(cc32)OCO4)cc(OC)c1OCc1ccccc1 | HCT-116 | condition met |
